Recorded GI50 at 48 h for the following molecules
assay: in vitro; details: human;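 note: MTT reduction read as absorbance at 595 nm, blank-corrected and expressed as percent growth relative to the time-zero cell reading, triplicate wells per concentration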
Bridge positions count the residues as written; N and C are the ends. Square brackets hold non-standard residues; d marks the D form. Peptide text beside a SMILES is read from it. 2Nal = N[C@@H](Cc1ccc2ccccc2c1)C(=O)O; Cit = NC(=O)NCCC[C@H](N)C(=O)O
Measure Name: GI50 at 48 h (µM)

* N=C(N)NCCC[C@@H]1NC(=O)[C@@H]2CSSC[C@H](NC(=O)[C@H](Cc3ccc(O)cc3)NC(=O)[C@H](CCCNC(=N)N)NC(=O)[C@H](CCCNC(=N)N)NC(=O)[C@H]3CCCN3C(=O)CNC1=O)C(=O)N[C@@H](CCCNC(N)=O)C(=O)N[C@@H](Cc1ccc(O)cc1)C(=O)N[C@@H](CCCCN)C(=O)N1CCC[C@@H]1C(=O)N1CCC[C@H]1C(=O)N[C@@H](Cc1ccc(O)cc1)C(=O)N[C@@H](CCCNC(=N)N)C(=O)N[C@@H](CCCNC(N)=O)C(=O)N2 [Ex. 113] (cyclo(YR[Cit]CRG[dP]RRYC[Cit]YK[dP]P); disulfide 4-11) | 45
* N=C(N)NCCC[C@@H]1NC(=O)[C@@H]2CSSC[C@H](NC(=O)[C@H](Cc3ccc(O)cc3)NC(=O)[C@H](CCCNC(=N)N)NC(=O)[C@H](CCCNC(=N)N)NC(=O)[C@H]3CCCN3C(=O)CNC1=O)C(=O)N[C@@H](Cc1ccc(O)cc1)C(=O)N[C@@H](CCCNC(N)=O)C(=O)N[C@@H](CCCCN)C(=O)N1CCC[C@@H]1C(=O)N1CCC[C@H]1C(=O)N[C@@H](Cc1ccc(O)cc1)C(=O)N[C@@H](CCCNC(=N)N)C(=O)N[C@@H](CCCNC(N)=O)C(=O)N2 [Ex. 112] (cyclo(YR[Cit]CRG[dP]RRYCY[Cit]K[dP]P); disulfide 4-11) | 76
* C[C@@H](O)[C@@H]1NC(=O)[C@@H]2CCCN2C(=O)[C@H]2CCCN2C(=O)[C@H](CCCCN)NC(=O)[C@H](CCC(N)=O)NC(=O)[C@H](Cc2ccc(O)cc2)NC(=O)[C@@H]2CSSC[C@H](NC(=O)[C@H](CCCNC(N)=O)NC(=O)[C@H](CCCNC(=N)N)NC1=O)C(=O)N[C@@H](CCCNC(=N)N)C(=O)NCC(=O)N1CCC[C@@H]1C(=O)N[C@@H](CCCNC(=N)N)C(=O)N[C@@H](CCCNC(=N)N)C(=O)N[C@@H](Cc1ccc3ccccc3c1)C(=O)N2 [Ex. 67] (cyclo(TR[Cit]CRG[dP]RR[2Nal]CYQK[dP]P); disulfide 4-11) | 49
